system: 22Rv1 prostate cancer cells; assay: MTS cytotoxicity assay in 22Rv1 prostate cancer cells; format: cell-based; details: 100 μM, 48 hr treatment, MTS

{"compound": "O=S1(=O)N=C(NCc2ccc(OC(F)(F)F)cc2)Nc2ccc(Br)cc21 [Compound 30c]", "measured.target": "22Rv1 prostate cancer cells", "reduction of 22Rv1 cell viability": "45%"}
{"compound": "O=S1(=O)NC(=S)Nc2cc(Cl)ccc21 [Compound 12b]", "measured.target": "22Rv1 prostate cancer cells", "reduction of 22Rv1 cell viability": "12%"}
{"compound": "CC(NC1=NS(=O)(=O)c2cc(Br)ccc2N1)c1ccccc1 (stereo not drawn) [Compound 24c]", "measured.target": "22Rv1 prostate cancer cells", "reduction of 22Rv1 cell viability": "70%"}
{"compound": "CC(NC1=NS(=O)(=O)c2cc(F)ccc2N1)c1ccccc1 (stereo not drawn) [Compound 24a]", "measured.target": "22Rv1 prostate cancer cells", "reduction of 22Rv1 cell viability": "34%"}
{"compound": "O=S1(=O)N=C(NC2CCCC2)Nc2cc(Cl)ccc21 [Compound 22b]", "measured.target": "22Rv1 prostate cancer cells", "reduction of 22Rv1 cell viability": "34%"}
{"compound": "O=S1(=O)N=C(NCCCc2ccccc2)Nc2ccc(Br)cc21 [Compound 23c]", "measured.target": "22Rv1 prostate cancer cells", "reduction of 22Rv1 cell viability": "42%"}
{"compound": "O=S1(=O)N=C(NCc2ccc(C(F)(F)F)cc2)Nc2ccc(Br)cc21 [Compound 25c]", "measured.target": "22Rv1 prostate cancer cells", "reduction of 22Rv1 cell viability": "34%"}
{"compound": "C=CCNC1=NS(=O)(=O)c2cc(F)ccc2N1 [Compound 32a]", "measured.target": "22Rv1 prostate cancer cells", "reduction of 22Rv1 cell viability": "24%"}
{"compound": "O=S1(=O)N=C(NCc2ccc(Cl)cc2)Nc2cc(Cl)ccc21 [Compound 16b]", "measured.target": "22Rv1 prostate cancer cells", "reduction of 22Rv1 cell viability": "10%"}

Sourced from paper PMC8035258
